Listed here: items and their measured z-score.
assay-method-text: PSAC antagonists in infected red cells, primary screen, cell-based, P. falciparum Indochina, OD700, 1 h (AID 1154)
experimental-parameters: P. falciparum Indochina infected RBC osmotic lysis, higher = more signal, called active from +8 up or from −8 down

{"molecular-string": "O=C(NCc1ccccc1)[C@@H]1c2ccccc2C(=O)N(Cc2ccccc2Cl)[C@H]1c1ccc(CO)cc1", "z-score": 1.79}
{"molecular-string": "COCCOC(=O)N1C(=O)[C@@]2(c3cc(C#CC4(O)CCCCCC4)ccc31)[C@H](c1ccccc1OCCO)N1[C@H](c3ccccc3)[C@H](c3ccccc3)OC(=O)[C@H]1[C@@H]2C(=O)Nc1nc2ccccc2s1", "z-score": 3.33}
{"molecular-string": "COC(=O)c1c(CC[C@@H](CO)NC(=O)Nc2ccc(OC)cc2)oc(C(=O)Cc2ccccc2)c1C(=O)OC", "z-score": 3.06}
{"molecular-string": "O=C(O)[C@H]1C[C@H]2C(=O)NCC(=O)N2[C@H]1c1cccc(OCCO)c1", "z-score": 9.23}
{"molecular-string": "Cc1ccc(N2C(=O)c3ccccc3[C@](C)(C(=O)NCC(F)(F)F)[C@@H]2c2ccc(CO)cc2)nc1", "z-score": 0.57}
{"molecular-string": "O=C1O[C@H](c2ccccc2)[C@H](c2ccccc2)N2[C@H]1[C@@H](C(=O)NC[C@H](O)c1ccccc1)[C@]1(C(=O)Nc3ccc(C#CC4(O)CCCCCC4)cc31)[C@H]2c1ccc(O)cc1", "z-score": 0.519}
